Target Entity: T1, human Y2 receptor (human, UniProt P49146 1-381)
T1 construct: whole, on cells; used as membrane fraction of CHO/dhfr- cells stably expressing hY2R; also called hY2R; human NPY2R
T1 sequence (looked up): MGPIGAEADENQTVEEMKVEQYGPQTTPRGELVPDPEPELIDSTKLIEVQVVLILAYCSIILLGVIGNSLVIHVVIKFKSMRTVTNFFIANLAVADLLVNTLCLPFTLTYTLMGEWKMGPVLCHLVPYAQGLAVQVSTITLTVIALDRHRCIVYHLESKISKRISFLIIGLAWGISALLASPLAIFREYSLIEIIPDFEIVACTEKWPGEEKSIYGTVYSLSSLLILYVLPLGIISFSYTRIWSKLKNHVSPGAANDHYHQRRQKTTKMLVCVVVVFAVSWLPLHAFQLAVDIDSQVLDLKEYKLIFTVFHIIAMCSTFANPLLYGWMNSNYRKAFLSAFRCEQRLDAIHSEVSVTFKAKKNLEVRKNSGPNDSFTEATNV
Assay Procedure: RBA: displacement of [125I]-PYY from hY2R/CHO membranes
Non-standard residues stand in square brackets, D forms with d. *: point of attachment. X11 = ((1S)-1-carboxy-3-methylbutyl)carbamoyl, CC(C)C[C@H](NC(=O)*)C(=O)O; tBuAla = CC(C)(C)C[C@H](N)C(=O)O; Cha = N[C@@H](CC1CCCCC1)C(=O)O; Aib = CC(C)(N)C(=O)O

Binder: Ac-S[dP]RF[Cha][Aib]NK[Aib]TRQR[Cha]-NH2 (SMILES CC(=O)N[C@@H](CO)C(=O)N1CCC[C@@H]1C(=O)N[C@@H](CCCNC(=N)N)C(=O)N[C@@H](Cc1ccccc1)C(=O)N[C@@H](CC1CCCCC1)C(=O)NC(C)(C)C(=O)N[C@@H](CC(N)=O)C(=O)N[C@@H](CCCCN)C(=O)NC(C)(C)C(=O)N[C@H](C(=O)N[C@@H](CCCNC(=N)N)C(=O)N[C@@H](CCC(N)=O)C(=O)N[C@@H](CCCNC(=N)N)C(=O)N[C@@H](CC1CCCCC1)C(N)=O)[C@@H](C)O, also called compound No. 345) [Ac-[D-Pro24, Phe26, Cha27,36, Aib28,31, Lys30]-PYY(23-36)]
IC50 Ratio: 1.1 IC50 compound/IC50 PYY(3-36)

Binder: X11-E[dP]RH[Cha][Cha]NK[Aib]TRQR[Cha]-NH2 (SMILES CC(C)C[C@H](NC(=O)N[C@@H](CCC(=O)O)C(=O)N1CCC[C@@H]1C(=O)N[C@@H](CCCNC(=N)N)C(=O)N[C@@H](Cc1c[nH]cn1)C(=O)N[C@@H](CC1CCCCC1)C(=O)N[C@@H](CC1CCCCC1)C(=O)N[C@@H](CC(N)=O)C(=O)N[C@@H](CCCCN)C(=O)NC(C)(C)C(=O)N[C@H](C(=O)N[C@@H](CCCNC(=N)N)C(=O)N[C@@H](CCC(N)=O)C(=O)N[C@@H](CCCNC(=N)N)C(=O)N[C@@H](CC1CCCCC1)C(N)=O)[C@@H](C)O)C(=O)O, also called compound No. 254) [[(1S)-1-carboxy-3-methylbutyl]carbamoyl-[Glu23, D-Pro24, Cha27,28,36, Lys30, Aib31]-PYY(23-36)]
IC50 Ratio: 2.8 IC50 compound/IC50 PYY(3-36)

Binder: {((1S)-5-amino-1-carboxypentyl)carbamoyl}-S[dP]RH[Cha][Cha]NL[Aib]TRQR[Cha]-NH2 (calculated mass 1980.2 fits the name; also called compound No. 323) [[(1S)-5-Amino-1-carboxypentyl]carbamoyl-[D-Pro24, Cha27,28,36, Aib31]-PYY(23-36)]
IC50 Ratio: 1.3 IC50 compound/IC50 PYY(3-36)

Binder: X11-S[dP]RH[Cha][tBuAla]NK[Aib]TRQR[Cha]-NH2 (SMILES CC(C)C[C@H](NC(=O)N[C@@H](CO)C(=O)N1CCC[C@@H]1C(=O)N[C@@H](CCCNC(=N)N)C(=O)N[C@@H](Cc1c[nH]cn1)C(=O)N[C@@H](CC1CCCCC1)C(=O)N[C@@H](CC(C)(C)C)C(=O)N[C@@H](CC(N)=O)C(=O)N[C@@H](CCCCN)C(=O)NC(C)(C)C(=O)N[C@H](C(=O)N[C@@H](CCCNC(=N)N)C(=O)N[C@@H](CCC(N)=O)C(=O)N[C@@H](CCCNC(=N)N)C(=O)N[C@@H](CC1CCCCC1)C(N)=O)[C@@H](C)O)C(=O)O, also called compound No. 253) [[(1S)-1-carboxy-3-methylbutyl]carbamoyl-[D-Pro24, Cha27,36, Leu(Me)28, Lys30, Aib31]-PYY(23-36)]
IC50 Ratio: 1.1 IC50 compound/IC50 PYY(3-36)
